# reported folding stability dG; entries follow
B1: 5KPH (parent)
chain: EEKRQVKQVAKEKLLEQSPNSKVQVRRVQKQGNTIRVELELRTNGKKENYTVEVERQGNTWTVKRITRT

- Variants of: B1
- Assay comment: folding stability dG (cDNA display proteolysis); higher = more stable
- Experimental context: PBS, room temperature

{"columns": ["Variant name", "folding stability dG, kcal/mol"],
 "data": [
  ["E1R", 3.25],
  ["L39H", 0.352],
  ["G58K", 3.4],
  ["Y50E", -0.081],
  ["Q5W", 3.62],
  ["Q57W", 3.83],
  ["T62W", 4.24],
  ["K7Y", 3.86],
  ["T34H", 3.57],
  ["T62P", 1.79],
  ["R36S", 3.85],
  ["V54S", 1.63],
  ["I35K", 1.48],
  ["V6A", 4.84],
  ["R36V", 4.13],
  ["Q17G", 3.64],
  ["K30T", 4.14],
  ["T67F", 4.23],
  ["E1I", 2.88],
  ["K11F", 3.33],
  ["N20V", 2.78],
  ["V9W", 2.74],
  ["K11M", 4.37],
  ["E38D", 3.91],
  ["E55C", 3.34],
  ["K3V", 4.72],
  ["T51H", 3.24],
  ["V54I", 3.92],
  ["E48Q", 3.7],
  ["R27S", 3.79],
  ["E12Y", 2.83],
  ["E1K", 3.85],
  ["E53T", 3.62],
  ["K30S", 4.32],
  ["E48P", 1.23],
  ["Q17I", 4.39],
  ["N49S", 3.86],
  ["E53F", 4.03],
  ["T43Q", 3.91],
  ["Q17A", 3.68],
  ["I35L", 3.71],
  ["L41D", 2.04],
  ["N59A", 3.69],
  ["L15P", 1.87],
  ["R42P", 1.28],
  ["Q5V", 3.73],
  ["V9M", 3.83],
  ["L14T", 2.26],
  ["K47S", 3.92],
  ["I35C", 3.39],
  ["Q31G", 3.13],
  ["L14Y", 1.95],
  ["W61Y", 4.03],
  ["K13V", 4.12],
  ["G32P", 2.45],
  ["G45Q", 3.5],
  ["E16Q", 3.77],
  ["R56W", 4.17],
  ["K3P", 3.01],
  ["I66F", 3.04],
  ["K47P", 3.31],
  ["R65I", 3.43],
  ["E40I", 4.1],
  ["N59G", 4],
  ["S21Q", 2.31],
  ["T34Y", 3.92],
  ["G32C", 3.07],
  ["L41Q", 2.91],
  ["K13Y", 4.07],
  ["V28A", 3.15],
  ["V28N", 1.55],
  ["R68G", 2.87],
  ["K46M", 3.89],
  ["V63W", 2.07],
  ["N44Q", 3.67],
  ["L39T", 2.59],
  ["V9F", 3.82],
  ["T43E", 3.78],
  ["V25A", 2.95],
  ["V9L", 4.16],
  ["K64Y", 3.5],
  ["N49L", 4.4],
  ["W61K", 0.975],
  ["R68N", 3.89],
  ["V54M", 3.85],
  ["N33S", 3.88],
  ["Q17D", 3.46],
  ["A10I", 4.24],
  ["R56E", 2.88],
  ["I35G", 2.57],
  ["T69P", 2.87]
]}
